Molecular target: human recombinant adrenergic α1D receptor (Homo sapiens, UniProt P25100)
Construct: expressed in transfected cells; host or cells: HEK-293
Sequence (P25100 1-572): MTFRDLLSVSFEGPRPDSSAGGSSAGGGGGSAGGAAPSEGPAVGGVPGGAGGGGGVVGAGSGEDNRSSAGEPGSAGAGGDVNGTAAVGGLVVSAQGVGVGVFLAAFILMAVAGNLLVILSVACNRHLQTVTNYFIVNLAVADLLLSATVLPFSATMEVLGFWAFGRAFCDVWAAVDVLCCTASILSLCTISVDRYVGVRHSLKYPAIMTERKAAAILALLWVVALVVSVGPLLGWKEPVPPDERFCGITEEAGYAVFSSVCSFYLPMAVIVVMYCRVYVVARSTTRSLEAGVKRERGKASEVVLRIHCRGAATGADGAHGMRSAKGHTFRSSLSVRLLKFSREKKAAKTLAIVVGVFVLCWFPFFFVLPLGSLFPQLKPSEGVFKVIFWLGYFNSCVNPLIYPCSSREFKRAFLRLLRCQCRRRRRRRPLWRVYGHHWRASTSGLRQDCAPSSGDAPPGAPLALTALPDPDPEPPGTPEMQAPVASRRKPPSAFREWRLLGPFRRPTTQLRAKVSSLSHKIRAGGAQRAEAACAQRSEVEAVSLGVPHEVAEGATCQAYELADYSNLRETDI
Test: Radioligand binding, adrenergic α1D receptor ([3H]Prazosin)
Settings: 0.1 μM compound; HEK-293 cells; 0.6 nM [3H]Prazosin; read-out: Percentage inhibition of ligand binding, Adrenergic α1D
ASSAY ENDPOINT: inhibition at 0.1 µM

Illustrative cases are given below, each with its answer.
{"columns": ["COMPOUND", "RESULT"],
 "data": [
  ["CC(=O)Nc1ccc(-c2ccccc2-n2c3c(c4cc(C)ccc42)CN(C)CC3)cn1 [Compound No. 83]", "64%"],
  ["Cc1ccc2c(c1)c1c(n2-c2ccc3cnccc3c2)CCN(C)C1 [Compound 38]", "32%"],
  ["Cc1ccc2c(c1)c1c(n2-c2cscc2-c2ccc3c(ccn3C)c2)CCN(C)C1 [Compound 33]", "69%"]
]}

Hi there! I need inhibition at 0.1 µM for each item below, if you can.
1. Cc1ccc2c(c1)c1c(n2-c2ccc(-c3ccc(F)cc3)cn2)CCN(C)C1 [Compound No. 140]
2. Cc1ccc2c(c1)c1c(n2-c2ccccc2-c2ccc(F)nc2)CCN(C)C1 [Compound No. 84]
3. Cc1ccc2c(c1)c1c(n2-c2cccc(-c3cccn3C)c2)CCN(C)C1 [Compound No. 69]
4. Cc1ccc2c(c1)c1c(n2-c2cscc2-c2c(C)noc2C)CCN(C)C1 [Compound No. 62]
5. Cc1csc(-c2cscc2-n2c3c(c4cc(C)ccc42)CN(C)CC3)c1 [Compound 50]

1. 56%
2. 58%
3. 9%
4. 18%
5. 51%
